- targetOrTestSystem: human BACE1 (sproBACE1) (Homo sapiens, UniProt P56817)
- Construct: sBACE1, corresponding to amino acids 1-454; made in house; host or cells: Sf9 insect cells (baculovirus), secreted into the medium
- Sequence (P56817 22-454): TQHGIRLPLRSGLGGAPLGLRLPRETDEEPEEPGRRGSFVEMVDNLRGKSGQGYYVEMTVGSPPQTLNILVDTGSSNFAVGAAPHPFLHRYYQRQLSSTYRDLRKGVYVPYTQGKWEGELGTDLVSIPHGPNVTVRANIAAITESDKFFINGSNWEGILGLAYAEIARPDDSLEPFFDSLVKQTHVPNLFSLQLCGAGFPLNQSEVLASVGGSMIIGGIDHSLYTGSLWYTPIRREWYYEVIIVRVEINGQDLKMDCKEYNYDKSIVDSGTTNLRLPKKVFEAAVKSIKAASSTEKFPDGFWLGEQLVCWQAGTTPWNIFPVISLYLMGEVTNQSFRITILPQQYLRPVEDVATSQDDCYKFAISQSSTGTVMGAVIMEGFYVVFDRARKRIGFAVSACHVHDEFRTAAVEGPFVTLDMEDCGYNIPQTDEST
- protocolSummary: BACE-1 Peptide Hydrolysis Assay (HTRF)
- Assay type: biochemical
- conditions: read-out: BACE-1 Ki
measure: Ki

Query string: Item under review: Cc1csc(-c2csc(C3(C4CC4)NC(=N)N(C)C3=O)c2)c1 (stereo not drawn) . Reported Ki?
Result string: < 5 µM

Query string: Item under review: CN1C(=N)NC(C)(c2cc(-c3cccc(C#N)c3)cs2)C(n2cccn2)C1=O (single isomer, unassigned) . Reported Ki?
Result string: < 5 µM

Query string: Item under review: CN1C(=N)N[C@](C)(c2ccc3c(Br)n[nH]c3c2)CC1=O . Reported Ki?
Result string: < 5 µM

Query string: Item under review: CC(=O)N1CCC[C@H](CN2C(=N)NC(c3ccccc3)(c3ccccc3)C2=O)C1 . Reported Ki?
Result string: < 5 µM

Query string: Item under review: Cc1ccc(CN2C(=N)NC(c3ccccc3)(c3ccccc3)C2=O)cc1 . Reported Ki?
Result string: < 5 µM

Query string: Item under review: CN1C(=N)N[C@@](CCC2CCCCC2)(C[C@H]2CCC[C@@H](Nc3ccc4cccc(Cl)c4n3)C2)C1=O . Reported Ki?
Result string: < 5 µM

Query string: Item under review: CC1(c2cccc(-c3cccc(Cl)c3)c2)NC(=N)N(CC2CCN(C(=O)c3ccccc3)C2)C1=O (stereo not drawn) . Reported Ki?
Result string: < 5 µM

Query string: Item under review: COc1ccc(F)c(-c2cccc(C3(C)CON(C)C(=N)N3)c2)c1 (stereo not drawn) . Reported Ki?
Result string: < 5 µM

Query string: Item under review: COc1ccccc1C(=O)N[C@@H]1CCC[C@H](C[C@@]2(CCC3CCCCC3)NC(=N)N(C)C2=O)C1 . Reported Ki?
Result string: < 5 µM
